- target_or_test_system: FMLV reverse transcriptase (Friend murine leukemia virus, UniProt P26810 P26810:661-1331)
- experimental_protocol: inhibition; reverse transcriptase activity in culture medium
- measurement_setup: protein: virion; tags: culture medium of chronically infected NIH3T3 cells
pIC50: −log10 of the molar value.
value_kind: pIC50

### Prompt Which pIC50 value is on record for GTTGGGGGTTGTTGGTGGGGTGGTGG (ssDNA, PS all linkages) [I100-12] ?
### Response > 6.30
